tested on: UACC-257; assay: NCI tumour cell line growth inhibition, 48 h
The source made the active and inactive calls. No stated cut-off is given here; in the data, active = GI50 up to about 1.1 µM and inactive = higher.
Classes to choose from: Y for active, N for inactive

Examples with answers:
Compound: OCCO[P+]1(OCCO)n2c3ccc2C(c2ccccc2)=C2C=CC(=N2)C(c2ccccc2)=c2ccc(n21)=C(c1ccccc1)C1=NC(=C3c2ccccc2)C=C1
Label Value: Y
//
Compound: COC(=O)C(C(=O)C(=O)Nc1c(Cl)cc([N+](=O)[O-])cc1Cl)c1csc(-n2nc(C3=CCCCC3)cc2-c2ccccc2)n1 (stereo unspecified)
Label Value: N
//
Compound: COc1ccccc1NC(=O)CC(=O)NN
Label Value: N

*Q* Short answer needed: outcome of this test for `O=C1NC2(CCCC2)C(=O)C12CCCC2` ?
*A* N

*Q* Please state the recorded outcome for this compound: CCOC(=O)c1cc(C2(O)CCN(CC(C)CC)C2=O)c(-c2cc(C)no2)[nH]1 (stereo unspecified)
*A* N

*Q* Returns: the outcome recorded for CCCCCCCCCCCCCCC(O)C1CCC(C(O)CCC(O)CCCCCC(O)CC2=CC(C)OC2=O)O1 (stereo unspecified) in this assay.
*A* Y

*Q* Record lookup: outcome of this test for `C#CCN(C)C(=O)N(CC#C)N=O` ?
*A* N

*Q* Hi team, can someone confirm the assay call for CCOC(=O)CC1C(C(=O)OCC)=Cn2c([nH]c3cccc4cccc2c43)=C1C(=O)OCC (stereo unspecified) ?
*A* N

----------
tested on: OVCAR-3; test: NCI tumour cell line growth inhibition, 48 h
The source made the active and inactive calls. Cut-off read from the data, not from the text of the source: active = GI50 up to about 1.1 µM and inactive = higher.
Respond only with the outcome that fits, drawn from active, inactive

Solved entries (count: 2):
Compound: COc1cc(C2c3cc4c(cc3OC(N3CCOCC3)C2C)OCO4)cc(OC)c1OC(C)=O (stereo not given)
Label Value: inactive
//
Compound: COC(=O)[C@]1(CCC(C)=O)C(=O)C=CN([C@H](C)c2ccccc2)[C@@H]1Cc1ccc(OC)c(OCc2ccccc2)c1I
Label Value: inactive

*Q* Dear all, I need the recorded test outcome for `Oc1cc(N2CCCC2)ccc1/C=N/N1C(=S)N(c2ccccc2)C(=N\c2ccccc2)/C1=N/c1ccccc1` , thank you.
*A* inactive

*Q* Record request — test call for `CN[C@H]1CC[C@]23C[C@]24CC[C@]2(C)[C@@H]([C@H](C)N(C)C)CC[C@@]2(C)[C@@H]4CC[C@H]3C1(C)C`
*A* inactive

*Q* For `Cc1cccc2sc(-c3ccc(O)cc3)nc12` , what call appears in the results of this test?
*A* inactive

*Q* Hi, do you know how Clc1cccc(Cl)c1C1SCc2nc3ncccc3n21 (stereo not given) came out in this test?
*A* inactive

*Q* Identify the outcome logged in this assay for the compound shown: COc1ccc2[nH]c(C(=O)N3CC(CCl)c4c3cc(N)c3ccccc43)cc2c1 (stereo not given)
*A* active

----------
system: IGROV-1; test: NCI tumour cell line growth inhibition, 48 h
The source made the active and inactive calls. No stated cut-off is given here; in the data, active = GI50 up to about 1.1 µM and inactive = higher.
Measure: GI50

*Q* Give GI50 for CCC1=C(CC2NCCc3cc(OC)c(OC)cc32)CC2c3ccccc3CCN2C1 (stereo not given)
*A* 21.2 µM (inactive)

----------
test system: HL-60; test: NCI tumour cell line growth inhibition, 48 h
Activity calls are given as the source filed them. Rule as the data show it: active = GI50 up to about 1.1 µM and inactive = higher.
Outcomes you can answer with include only these: True for active, False for inactive

Molecule: CC1=NN(c2cccc(Cl)c2)C2(C1=C/C=C/c1ccccc1)C(Cl)C(=O)N2c1nc2ccccc2s1 (stereo not drawn)
Label Value: False

*Q* Check the results log: what was the call for `Nc1nc(N)nc(-c2ccccc2NS(=O)(=O)c2ccc([N+](=O)[O-])cc2)n1` ?
*A* False

*Q* What was the test verdict on NC(=O)CNC(=O)[C@@H]1CC(OCCC(=O)O)CN1C(=O)C1CCCN1C(=O)OCc1ccccc1 (stereo partly drawn) ?
*A* False

Entry source: ChEMBL document CHEMBL1201862
